Target: Amine oxidase [flavin-containing] A (Homo sapiens)
Sequence (P21397 whole entry): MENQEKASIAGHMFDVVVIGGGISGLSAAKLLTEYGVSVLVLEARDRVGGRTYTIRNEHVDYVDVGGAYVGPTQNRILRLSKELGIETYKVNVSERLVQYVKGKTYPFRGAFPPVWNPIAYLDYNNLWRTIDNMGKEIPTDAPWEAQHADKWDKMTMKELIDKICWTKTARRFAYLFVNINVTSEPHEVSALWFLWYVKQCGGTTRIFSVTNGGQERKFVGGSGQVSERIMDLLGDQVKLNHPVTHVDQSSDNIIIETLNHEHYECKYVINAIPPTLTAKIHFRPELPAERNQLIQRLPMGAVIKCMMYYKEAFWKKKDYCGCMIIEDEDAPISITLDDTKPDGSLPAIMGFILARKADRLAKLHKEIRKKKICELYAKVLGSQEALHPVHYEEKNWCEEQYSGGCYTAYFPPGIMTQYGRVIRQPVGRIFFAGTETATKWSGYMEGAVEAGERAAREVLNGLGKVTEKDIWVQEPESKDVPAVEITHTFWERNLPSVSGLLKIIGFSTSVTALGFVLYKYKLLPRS
Test: Inhibition of recombinant human MAO-A expressed in baculovirus infected insect cell microsomes using kynuramine as substrate measured after 30 mins by fluorescence based assay
pIC50: −log10 of the molar value.
measure: pIC50

{"columns": ["compound", "reported-value"],
 "data": [
  ["Cc1c(C)c2ccc(OCC3CCCN(Cc4cccc(CO)c4)C3)cc2oc1=O (stereo not given)", 5.66],
  ["Cc1c(C)c2ccc(OCC3CCN(Cc4cccc(OCCCO)c4)CC3)cc2oc1=O", 6.26],
  ["Cc1c(C)c2ccc(OCC3CCCN(Cc4ccc(CO)cc4)C3)cc2oc1=O (stereo not given)", 5.96],
  ["Cc1c(C)c2ccc(OCC3CCN(Cc4cccc(OCCCO[N+](=O)[O-])c4)CC3)cc2oc1=O", 5.92],
  ["Cc1c(C)c2ccc(OCC3CCN(Cc4ccc(CO)cc4)CC3)cc2oc1=O", 5.85]
]}

All values here come from ChEMBL document CHEMBL4325863.
